Entry source: patent EP0624315B1

System: Rhizoctonia solani (Rhizso)
Assay: In vitro fungicidal evaluation, mycelial growth inhibition in nutrient broth; note: ranges in brackets are in %
Type: cell-based
Details: 25 ppm, 3-4 days at 21°C, rated visually
Provide the reported RHIZSO growth inhibition rating of each item.

Known results for molecules:
{"compound-string": "CC(=O)c1cc[n+]([B-](C)(c2ccccc2)c2ccccc2)cc1", "RHIZSO growth inhibition rating": "7 (90 - 99)"}
{"compound-string": "C[B-](c1ccccc1)(c1ccccc1)[n+]1ccc(-c2ccccc2)cc1", "RHIZSO growth inhibition rating": "5 (60 - 89)"}
{"compound-string": "C[B-](c1ccccc1)(c1ccccc1)[n+]1cccc(Br)c1", "RHIZSO growth inhibition rating": "7 (90 - 99)"}

Now look at this entry.
Query: I'd like to know its RHIZSO growth inhibition rating. The molecule in question is `C[B-](c1ccccc1)(c1ccccc1)[n+]1ccc(C(C)(C)C)cc1`
Response: 7 (90 - 99)

###

Tested on: Plasmopara viticola
Assay: In vivo fungicidal evaluation, Grape Downy Mildew; note: ranges in brackets are in %
Settings: 200 ppm, host plants sprayed, dried, then inoculated
observation-type: GDM (Grape Downy Mildew) disease control rating

Known results for compounds:
{"compound": "C[B-](c1ccccc1)(c1ccccc1)[n+]1cccc(Br)c1 [Compound 18, (3-Bromopyridinio)methyldiphenylboron]", "tested-on": "Plasmopara viticola", "obs-value": "4 (45 - 59)"}
{"compound": "CC(=O)c1cc[n+]([B-](C)(c2ccccc2)c2ccccc2)cc1 [Compound 19, (4-Acetylpyridinio)methyldiphenylboron]", "tested-on": "Plasmopara viticola", "obs-value": "9 (100)"}
{"compound": "C[B-](c1ccccc1)(c1ccccc1)[n+]1ccc(C(C)(C)C)cc1 [Compound 20]", "tested-on": "Plasmopara viticola", "obs-value": "9 (100)"}

Now look at this entry.
Query: I'd like to know its GDM (Grape Downy Mildew) disease control rating. The compound in question is C[B-](c1ccccc1)(c1ccccc1)[n+]1ccc(-c2ccccc2)cc1 [Compound 17, (4-Phenylpyridinio)methyldiphenylboron]
Response: 9 (100)

###

Provide the reported PB (Pepper Botrytis) disease control rating of each item.
System: Botrytis cinerea
Test: In vivo fungicidal evaluation, Pepper Botrytis; note: ranges in brackets are in %
Details: 200 ppm, host plants sprayed, dried, then inoculated

Known results for molecules:
{"molecule": "C[B-](c1ccccc1)(c1ccccc1)[n+]1ccc(-c2ccccc2)cc1 [Compound 17, (4-Phenylpyridinio)methyldiphenylboron]", "obs-value": "9 (100)"}
{"molecule": "CC(=O)c1cc[n+]([B-](C)(c2ccccc2)c2ccccc2)cc1 [Compound 19, (4-Acetylpyridinio)methyldiphenylboron]", "obs-value": "9 (100)"}
{"molecule": "C[B-](c1ccccc1)(c1ccccc1)[n+]1ccc(C(C)(C)C)cc1 [Compound 20]", "obs-value": "9 (100)"}

Now look at this entry.
Query: I'd like to know its PB (Pepper Botrytis) disease control rating. The molecule in question is C[B-](c1ccccc1)(c1ccccc1)[n+]1cccc(Br)c1 [Compound 18, (3-Bromopyridinio)methyldiphenylboron]
Response: 8 (96 - 99)
